- TARGET_UNDER_TEST: Mitogen-activated protein kinase 7 (Homo sapiens, UniProt Q13164)
- Sequence (Q13164 whole entry): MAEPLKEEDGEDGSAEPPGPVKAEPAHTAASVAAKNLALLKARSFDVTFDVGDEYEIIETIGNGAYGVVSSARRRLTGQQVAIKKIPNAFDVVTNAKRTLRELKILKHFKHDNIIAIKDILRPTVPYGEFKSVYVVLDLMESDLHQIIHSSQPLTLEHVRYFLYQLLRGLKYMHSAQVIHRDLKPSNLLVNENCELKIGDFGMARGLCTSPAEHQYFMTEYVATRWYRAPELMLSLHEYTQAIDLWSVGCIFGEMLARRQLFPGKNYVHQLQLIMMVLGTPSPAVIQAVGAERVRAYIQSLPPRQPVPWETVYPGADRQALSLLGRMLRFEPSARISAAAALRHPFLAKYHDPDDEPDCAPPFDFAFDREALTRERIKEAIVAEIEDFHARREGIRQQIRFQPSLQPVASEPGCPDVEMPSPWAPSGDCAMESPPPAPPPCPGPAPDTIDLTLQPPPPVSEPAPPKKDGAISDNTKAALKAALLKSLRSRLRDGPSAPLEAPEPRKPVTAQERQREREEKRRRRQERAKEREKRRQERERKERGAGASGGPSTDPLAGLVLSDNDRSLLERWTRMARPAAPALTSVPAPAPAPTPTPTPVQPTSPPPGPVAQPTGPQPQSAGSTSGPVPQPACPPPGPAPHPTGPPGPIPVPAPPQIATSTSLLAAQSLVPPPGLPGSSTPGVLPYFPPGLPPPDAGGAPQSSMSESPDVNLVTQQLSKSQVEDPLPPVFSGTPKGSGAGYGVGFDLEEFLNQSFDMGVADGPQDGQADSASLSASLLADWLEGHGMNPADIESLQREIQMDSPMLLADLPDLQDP
- METHOD_NOTES: Inhibition of ERK5 in human HeLa cells assessed as reduction in EGF-induced ERK5 autophosphorylation pretreated for 1 hr followed by EGF stimulation and measured after 17 mins by […]
- Format: cell-based
- CONDITIONS_USED: hela
MEASURE_NAME: IC50
A complete answer gives the number followed by the unit.

Looking up `COc1cc(N2CCN(C)CC2)ccc1Nc1ncc2c(n1)N(C)c1ccccc1C(=O)N2CC(F)(F)F` , I see its IC50 listed as 3.35 µM

###

Task for the reader: assign each of the following molecules its reported pIC50.
- TARGET_UNDER_TEST: Serine/threonine-protein kinase DCLK1 (Homo sapiens, UniProt O15075)
- METHOD_NOTES: Inhibition of recombinant human N-terminal His6-tagged DCLK1 (G351 to H689 residues) expressed in Escherichia coli BL21 DE3 using 5-FAM-KKLRRTLSVA-COOH as substrate measured after 2 hrs by mobility shift assay
Scale for pIC50: -log10 of concentration given in mol/L; no unit attached.

Looking up `CC(C)Oc1cc(N2CCC(O)CC2)ccc1Nc1ncc2c(n1)N(C)c1ccccc1C(=O)N2C` , I see its pIC50 listed as 6.29

Looking up `CN1C(=O)c2ccccc2N(C)c2nc(Nc3ccc(N4CCC(O)CC4)cc3)ncc21` , I see its pIC50 listed as 6.96

Looking up `COc1cc(N2CCN(C)CC2)ccc1Nc1ncc2c(n1)N(C1CCC1)c1ccccc1C(=O)N2C` , I see its pIC50 listed as 7.85

Looking up `COc1cc(NS(C)(=O)=O)ccc1Nc1ncc2c(n1)N(C)c1ccccc1C(=O)N2CC(F)(F)F` , I see its pIC50 listed as 7.10

###

- TARGET_UNDER_TEST: Leucine-rich repeat serine/threonine-protein kinase 2 (Homo sapiens, UniProt Q5S007)
- Sequence (Q5S007 whole entry, the tested form may be a part): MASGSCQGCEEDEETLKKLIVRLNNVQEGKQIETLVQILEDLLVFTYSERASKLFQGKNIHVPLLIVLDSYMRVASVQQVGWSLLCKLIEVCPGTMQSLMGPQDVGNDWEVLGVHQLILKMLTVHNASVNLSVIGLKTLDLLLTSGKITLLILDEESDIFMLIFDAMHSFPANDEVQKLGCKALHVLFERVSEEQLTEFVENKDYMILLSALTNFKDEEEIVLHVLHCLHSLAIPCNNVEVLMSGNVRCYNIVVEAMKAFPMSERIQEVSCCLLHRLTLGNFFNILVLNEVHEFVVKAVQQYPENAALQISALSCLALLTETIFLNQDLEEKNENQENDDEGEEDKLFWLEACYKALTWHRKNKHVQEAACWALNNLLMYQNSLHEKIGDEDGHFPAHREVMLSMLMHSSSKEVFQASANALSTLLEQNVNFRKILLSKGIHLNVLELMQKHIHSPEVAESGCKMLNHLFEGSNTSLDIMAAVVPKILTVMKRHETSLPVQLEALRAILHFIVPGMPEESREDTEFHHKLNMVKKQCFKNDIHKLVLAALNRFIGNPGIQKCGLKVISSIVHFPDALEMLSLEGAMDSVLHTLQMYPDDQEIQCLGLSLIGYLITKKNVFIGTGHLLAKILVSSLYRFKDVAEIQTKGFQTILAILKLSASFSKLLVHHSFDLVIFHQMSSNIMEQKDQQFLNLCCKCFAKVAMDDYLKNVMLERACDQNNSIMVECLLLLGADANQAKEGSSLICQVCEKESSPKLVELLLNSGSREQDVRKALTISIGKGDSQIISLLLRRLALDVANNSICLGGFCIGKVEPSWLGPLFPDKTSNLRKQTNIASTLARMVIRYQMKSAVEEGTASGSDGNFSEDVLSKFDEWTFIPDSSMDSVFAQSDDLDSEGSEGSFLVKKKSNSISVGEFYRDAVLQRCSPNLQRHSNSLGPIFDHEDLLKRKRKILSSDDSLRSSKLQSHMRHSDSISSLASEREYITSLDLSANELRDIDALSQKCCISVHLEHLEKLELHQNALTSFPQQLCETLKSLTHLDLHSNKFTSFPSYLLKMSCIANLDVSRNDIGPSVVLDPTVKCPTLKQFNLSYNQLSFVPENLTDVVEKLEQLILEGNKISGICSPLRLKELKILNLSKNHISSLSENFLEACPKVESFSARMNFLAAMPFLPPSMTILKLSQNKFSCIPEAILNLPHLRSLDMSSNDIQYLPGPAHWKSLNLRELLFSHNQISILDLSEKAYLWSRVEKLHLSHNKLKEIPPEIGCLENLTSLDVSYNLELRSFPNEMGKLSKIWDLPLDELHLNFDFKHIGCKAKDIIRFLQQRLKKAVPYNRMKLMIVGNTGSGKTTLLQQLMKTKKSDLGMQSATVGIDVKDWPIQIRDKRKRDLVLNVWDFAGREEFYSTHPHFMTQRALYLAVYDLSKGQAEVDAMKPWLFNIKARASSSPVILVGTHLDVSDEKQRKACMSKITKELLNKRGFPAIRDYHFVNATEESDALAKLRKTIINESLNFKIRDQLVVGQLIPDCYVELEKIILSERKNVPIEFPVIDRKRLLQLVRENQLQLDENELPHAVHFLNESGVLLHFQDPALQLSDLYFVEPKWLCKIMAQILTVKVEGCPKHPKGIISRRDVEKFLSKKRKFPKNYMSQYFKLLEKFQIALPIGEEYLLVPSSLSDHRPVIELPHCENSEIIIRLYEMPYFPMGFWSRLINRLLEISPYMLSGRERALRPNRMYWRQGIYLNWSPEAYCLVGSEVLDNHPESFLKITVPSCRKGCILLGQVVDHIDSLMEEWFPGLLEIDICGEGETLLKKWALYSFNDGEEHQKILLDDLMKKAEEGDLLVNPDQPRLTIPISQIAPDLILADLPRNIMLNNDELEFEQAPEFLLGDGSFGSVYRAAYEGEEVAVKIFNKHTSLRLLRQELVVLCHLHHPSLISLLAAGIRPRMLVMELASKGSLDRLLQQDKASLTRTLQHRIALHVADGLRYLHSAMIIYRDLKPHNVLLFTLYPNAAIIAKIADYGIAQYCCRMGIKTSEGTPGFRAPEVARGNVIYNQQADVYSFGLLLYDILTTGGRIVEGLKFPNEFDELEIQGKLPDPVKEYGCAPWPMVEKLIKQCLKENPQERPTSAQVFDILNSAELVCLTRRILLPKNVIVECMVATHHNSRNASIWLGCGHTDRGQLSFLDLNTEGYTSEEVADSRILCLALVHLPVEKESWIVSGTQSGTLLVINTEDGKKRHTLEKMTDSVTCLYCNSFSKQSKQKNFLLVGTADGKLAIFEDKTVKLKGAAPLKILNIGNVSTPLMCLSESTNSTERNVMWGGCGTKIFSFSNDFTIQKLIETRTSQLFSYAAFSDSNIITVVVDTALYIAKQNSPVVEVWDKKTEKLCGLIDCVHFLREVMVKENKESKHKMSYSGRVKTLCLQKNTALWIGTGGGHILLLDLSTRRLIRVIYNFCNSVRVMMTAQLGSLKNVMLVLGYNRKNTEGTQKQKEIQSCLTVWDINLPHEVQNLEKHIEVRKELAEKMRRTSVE
- METHOD_NOTES: Inhibition of recombinant human GST-tagged LRRK2 catalytic domain (970 to 2527 residues) expressed in baculovirus expression system using LRRKtide as substrate measured after 1 hr by Alexa fluor-647 ADP tracer-based ADAPTA assay
Lab note - cut at 0.1 µM for IC50: rule met if strictly below, rule not met if not.

IN: Consider the compound `COc1cc(N2CCN(C)CC2)ccc1Nc1ncc2c(n1)N(C1CCCC1)c1ccccc1C(=O)N2C` . Is its IC50 strictly less than 0.1 µM?
OUT: rule not met

IN: Consider the compound `CCN1C(=O)c2ccccc2N(C)c2nc(Nc3ccc(C(=O)NC4CCN(C)CC4)cc3OC)ncc21` . Is its IC50 strictly less than 0.1 µM?
OUT: rule met

IN: Consider the compound `COc1cc(N2CCN(C)CC2)ccc1Nc1ncc2c(n1)N(C)c1ccccc1C(=O)N2` . Is its IC50 strictly less than 0.1 µM?
OUT: rule met

IN: Consider the compound `COc1cc(N2CCN(C)CC2)ccc1Nc1ncc2c(n1)N(C)c1cc(Cl)ccc1C(=O)N2C` . Is its IC50 strictly less than 0.1 µM?
OUT: rule not met

IN: Consider the compound `CCN1C(=O)c2ccccc2N(C)c2nc(Nc3ccc(N4CCN(C)CC4)cc3OC)ncc21` . Is its IC50 strictly less than 0.1 µM?
OUT: rule met

IN: Consider the compound `CCOc1cc(C(=O)N2CCC(N3CCN(C)CC3)CC2)ccc1Nc1ncc2c(n1)N(C1CCCC1)c1ccccc1C(=O)N2C` . Is its IC50 strictly less than 0.1 µM?
OUT: rule not met

IN: Consider the compound `COc1cc(N2CCN(C)CC2)ccc1Nc1ncc2c(n1)N(C)c1ccccc1C(=O)N2C(C)C` . Is its IC50 strictly less than 0.1 µM?
OUT: rule not met

IN: Consider the compound `CN1C(=O)c2ccccc2N(C)c2nc(Nc3cccc(S(N)(=O)=O)c3)ncc21` . Is its IC50 strictly less than 0.1 µM?
OUT: rule met

IN: Consider the compound `COc1cc(N2CCN(C)CC2)ccc1Nc1ncc2c(n1)N(C)c1ccc(C)cc1C(=O)N2C` . Is its IC50 strictly less than 0.1 µM?
OUT: rule not met

IN: Consider the compound `COc1cc(C(=O)NC2CCN(C)CC2)ccc1Nc1ncc2c(n1)N(C)c1ccccc1C(=O)N2CC(F)(F)F` . Is its IC50 strictly less than 0.1 µM?
OUT: rule not met

IN: Consider the compound `COc1cc(N2CCC(O)CC2)ccc1Nc1ncc2c(n1)N(C)c1ccccc1C(=O)N2C` . Is its IC50 strictly less than 0.1 µM?
OUT: rule met

IN: Consider the compound `COc1cc(N2CCN(C)CC2)ccc1Nc1ncc2c(n1)N(C1CCC1)c1ccccc1C(=O)N2C` . Is its IC50 strictly less than 0.1 µM?
OUT: rule met

IN: Consider the compound `COc1cc(N2CCN(C3CCN(C)CC3)CC2)ccc1Nc1ncc2c(n1)N(C)c1ccccc1C(=O)N2C` . Is its IC50 strictly less than 0.1 µM?
OUT: rule met

IN: Consider the compound `CCOc1cc(N2CCC(O)CC2)ccc1Nc1ncc2c(n1)N(C)c1ccccc1C(=O)N2C` . Is its IC50 strictly less than 0.1 µM?
OUT: rule met

IN: Consider the compound `CN1C(=O)c2ccccc2N(C)c2nc(Nc3ccc(S(N)(=O)=O)cc3)ncc21` . Is its IC50 strictly less than 0.1 µM?
OUT: rule met

IN: Consider the compound `COc1cc(N2CCN(C)CC2)ccc1Nc1nc(C)c2c(n1)N(C)c1ccccc1C(=O)N2C` . Is its IC50 strictly less than 0.1 µM?
OUT: rule not met

IN: Consider the compound `COc1cc(N2CCN(C)CC2)ccc1Nc1ncc2c(n1)N(C)c1ccccc1C(=O)N2C` . Is its IC50 strictly less than 0.1 µM?
OUT: rule met

###

- TARGET_UNDER_TEST: Serine/threonine-protein kinase DCLK1 (Homo sapiens, UniProt O15075)
- METHOD_NOTES: Inhibition of recombinant human N-terminal His6-tagged DCLK1 (G351 to H689 residues) expressed in Escherichia coli BL21 DE3 using 5-FAM-KKLRRTLSVA-COOH as substrate measured after 2 hrs by mobility shift assay
Lab note - cut at 40 nM for IC50: true if strictly below, false if not.

IN: Consider the compound `COc1cc(N2CCN(C)CC2)ccc1Nc1ncc2c(n1)N(C)c1ccc(C)cc1C(=O)N2C` . Is its IC50 strictly less than 40 nM?
OUT: false

IN: Consider the compound `COc1cc(N2CCN(C)CC2)ccc1Nc1ncc2c(n1)N(C1CCCC1)c1ccccc1C(=O)N2C` . Is its IC50 strictly less than 40 nM?
OUT: true

IN: Consider the compound `CCN1C(=O)c2ccccc2N(C)c2nc(Nc3ccc(NS(C)(=O)=O)cc3OC)ncc21` . Is its IC50 strictly less than 40 nM?
OUT: true

IN: Consider the compound `CCN1C(=O)c2ccccc2N(C)c2nc(Nc3ccc(C(=O)NC4CCN(C)CC4)cc3OC)ncc21` . Is its IC50 strictly less than 40 nM?
OUT: true

IN: Consider the compound `COc1cc(N2CCN(C3CCN(C)CC3)CC2)ccc1Nc1ncc2c(n1)N(C)c1ccccc1C(=O)N2C` . Is its IC50 strictly less than 40 nM?
OUT: false

IN: Consider the compound `Cc1cc(N2CCC(O)CC2)ccc1Nc1ncc2c(n1)N(C)c1ccccc1C(=O)N2C` . Is its IC50 strictly less than 40 nM?
OUT: true

IN: Consider the compound `COc1cc(N2CCN(C)CC2)ccc1Nc1ncc2c(n1)N(C(C)C)c1ccccc1C(=O)N2C` . Is its IC50 strictly less than 40 nM?
OUT: false

IN: Consider the compound `COc1cc(N2CCN(C)CC2)ccc1Nc1ncc2c(n1)N(C)c1ccccc1C(=O)N2` . Is its IC50 strictly less than 40 nM?
OUT: false

###

- TARGET_UNDER_TEST: Serine/threonine-protein kinase DCLK1 (Homo sapiens)
- Sequence (O15075 whole entry): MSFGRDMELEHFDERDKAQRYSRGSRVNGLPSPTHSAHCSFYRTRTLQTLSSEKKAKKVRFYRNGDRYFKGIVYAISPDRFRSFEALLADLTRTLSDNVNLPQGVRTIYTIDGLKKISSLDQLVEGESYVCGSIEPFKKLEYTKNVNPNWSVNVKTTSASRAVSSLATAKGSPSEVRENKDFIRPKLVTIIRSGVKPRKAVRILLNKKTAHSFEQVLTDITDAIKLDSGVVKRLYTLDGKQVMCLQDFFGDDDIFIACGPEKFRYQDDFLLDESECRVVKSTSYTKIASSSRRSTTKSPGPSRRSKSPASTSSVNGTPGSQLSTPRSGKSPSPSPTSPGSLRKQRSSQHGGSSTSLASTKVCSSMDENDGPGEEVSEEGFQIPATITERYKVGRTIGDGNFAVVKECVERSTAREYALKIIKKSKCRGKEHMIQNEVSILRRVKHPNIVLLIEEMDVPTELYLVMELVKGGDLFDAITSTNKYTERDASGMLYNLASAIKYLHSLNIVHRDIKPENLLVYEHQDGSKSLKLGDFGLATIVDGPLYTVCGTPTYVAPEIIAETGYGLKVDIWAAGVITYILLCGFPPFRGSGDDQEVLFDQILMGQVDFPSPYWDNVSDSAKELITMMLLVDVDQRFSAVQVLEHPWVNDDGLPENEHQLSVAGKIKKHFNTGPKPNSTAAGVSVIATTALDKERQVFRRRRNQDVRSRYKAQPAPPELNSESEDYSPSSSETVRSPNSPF
- METHOD_NOTES: Inhibition of recombinant human N-terminal His6-tagged DCLK1 (G351 to H689 residues) expressed in Escherichia coli BL21 DE3 using 5-FAM-KKLRRTLSVA-COOH as substrate measured after 2 hrs by mobility shift assay
MEASURE_NAME: IC50

Looking up `COc1cc(NS(C)(=O)=O)ccc1Nc1ncc2c(n1)N(C)c1ccccc1C(=O)N2C` , I see its IC50 listed as 3 to 16 nM

Looking up `COc1cc(NS(C)(=O)=O)ccc1Nc1ncc2c(n1)N(C)c1ccccc1C(=O)N2C(C)C` , I see its IC50 listed as > 1000 nM

Looking up `COc1cc(N2CCN(C)CC2)ccc1Nc1ncc2c(n1)N(C)c1cc(Cl)ccc1C(=O)N2C` , I see its IC50 listed as > 2000 nM

Looking up `COc1cc(N2CCN(C)CC2)ccc1Nc1ncc2c(n1)N(C)c1ccccc1C(=O)N2C` , I see its IC50 listed as 11 to 16 nM

Looking up `COc1cc(N2CCN(C)CC2)ccc1Nc1ncc2c(n1)N(C)c1ccc(Cl)cc1C(=O)N2C` , I see its IC50 listed as > 2000 nM

Source: ChEMBL document CHEMBL4610122
